target: chimeric Taq 7-3 (Thermus aquaticus / environmental DNA chimera) (UniProt P19821)
Sequence (P19821 whole entry, change not shown): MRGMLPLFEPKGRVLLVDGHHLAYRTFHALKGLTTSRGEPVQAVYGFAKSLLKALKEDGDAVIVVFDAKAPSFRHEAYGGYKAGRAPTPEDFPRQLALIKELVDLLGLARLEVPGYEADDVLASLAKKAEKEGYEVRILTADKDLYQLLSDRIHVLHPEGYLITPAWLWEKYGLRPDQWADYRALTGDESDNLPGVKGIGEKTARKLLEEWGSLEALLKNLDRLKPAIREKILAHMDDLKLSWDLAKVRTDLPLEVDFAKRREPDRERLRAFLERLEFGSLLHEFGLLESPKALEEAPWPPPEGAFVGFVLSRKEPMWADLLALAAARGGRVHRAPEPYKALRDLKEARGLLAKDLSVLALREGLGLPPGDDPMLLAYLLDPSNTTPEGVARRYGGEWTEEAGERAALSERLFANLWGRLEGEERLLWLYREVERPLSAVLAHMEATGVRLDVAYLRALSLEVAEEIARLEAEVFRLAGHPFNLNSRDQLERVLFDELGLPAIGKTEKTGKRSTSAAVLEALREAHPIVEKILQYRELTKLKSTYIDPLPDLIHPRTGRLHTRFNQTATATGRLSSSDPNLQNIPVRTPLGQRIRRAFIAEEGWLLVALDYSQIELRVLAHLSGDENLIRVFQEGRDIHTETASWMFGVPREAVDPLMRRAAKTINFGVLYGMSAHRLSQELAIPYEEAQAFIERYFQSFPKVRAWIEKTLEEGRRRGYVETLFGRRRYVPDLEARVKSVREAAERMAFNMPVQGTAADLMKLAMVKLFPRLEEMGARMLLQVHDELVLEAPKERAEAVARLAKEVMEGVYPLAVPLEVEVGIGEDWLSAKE
assay explanation: EMSA
condition: EMSA: 3 nM DNA, 20 mM Tris-HCl pH 8.8, 10 mM NaCl, 5 mM MgCl2, 14 mM 2-mercaptoethanol, 0.1 mg/ml BSA, 5% glycerol, 40 C, 5 min; 1% agarose gel
pKd: −log10 of the molar value.

query sequence	pKd
AGCTATGACCATGATTACGAATTGCTT / AGCTACCATGCCTGCACGAATTAAGCAATTCGTAATCATGGTCATAGCT [primed DNA (27mer/49mer)]	8.40

----------
target: chimeric Taq 8-2 (Thermus aquaticus / environmental DNA chimera)
assay explanation: EMSA
condition: EMSA: 3 nM DNA, 20 mM Tris-HCl pH 8.8, 10 mM NaCl, 5 mM MgCl2, 14 mM 2-mercaptoethanol, 0.1 mg/ml BSA, 5% glycerol, 40 C, 5 min; 1% agarose gel
value kind: Kd (nM)

query sequence	value kind	result
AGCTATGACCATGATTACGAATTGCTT / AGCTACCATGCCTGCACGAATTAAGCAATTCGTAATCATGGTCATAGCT [primed DNA (27mer/49mer)]	Kd	20

----------
target: chimeric Taq 4-1 (Thermus aquaticus / environmental DNA chimera) (UniProt P19821)
Sequence (P19821 whole entry, change not shown): as the sequence (P19821 whole entry, change not shown) above
assay explanation: EMSA
condition: EMSA: 3 nM DNA, 20 mM Tris-HCl pH 8.8, 10 mM NaCl, 5 mM MgCl2, 14 mM 2-mercaptoethanol, 0.1 mg/ml BSA, 5% glycerol, 40 C, 5 min; 1% agarose gel
pKd: −log10 of the molar value.

query sequence	pKd
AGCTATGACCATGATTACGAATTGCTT / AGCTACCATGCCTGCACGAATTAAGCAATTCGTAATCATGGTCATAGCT [primed DNA (27mer/49mer)]	8.40

----------
target: chimeric Taq 12-1 (Thermus aquaticus / environmental DNA chimera)
assay explanation: EMSA
condition: EMSA: 3 nM DNA, 20 mM Tris-HCl pH 8.8, 10 mM NaCl, 5 mM MgCl2, 14 mM 2-mercaptoethanol, 0.1 mg/ml BSA, 5% glycerol, 40 C, 5 min; 1% agarose gel

query sequence	Kd, nM
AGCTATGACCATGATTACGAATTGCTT / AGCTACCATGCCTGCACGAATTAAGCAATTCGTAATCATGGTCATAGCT [primed DNA (27mer/49mer)]	7
